Data origin, for the record: patent US10301272B2

Biological target: RORγ (Homo sapiens)
Test: RORγ Gal4 Reporter Gene Assay
Type: cell-based
outcome.measure: pIC50 (FF)

Use the examples below as a reference point.
# test.smiles, tested.on, pIC50 (FF)
data = [
    ("CC(C)(C)NS(=O)(=O)c1ccc(-c2sc(C(=O)NCCC(C)(C)C(N)=O)nc2CC2CCCCC2)cc1C(F)(F)F", "RORγ (Homo sapiens)", "5.9/6.9/7.0"),
    ("CC1(c2cc(Cl)cc(-c3sc(C(=O)N[C@H]4C[C@H](C(=O)O)C4)nc3CC3CCCCC3)c2)CC1", "RORγ (Homo sapiens)", "5.4/6.9/7.0"),
    ("CC(C)(C)NS(=O)(=O)c1ccc(-c2sc(C(=O)N3CC4(CSC4)C3)nc2CC2CCCCC2)c(Cl)c1Cl", "RORγ (Homo sapiens)", "6.9/8.0/8.2"),
    ("CC(C)(O)CNC(=O)c1nc(CC2CCCCC2)c(-c2ccc(S(=O)(=O)NC(C)(C)C)c(C(C)(C)O)c2)s1", "RORγ (Homo sapiens)", "6.6/7.5/7.6"),
    ("CC(C)(C)NS(=O)(=O)c1ccc(-c2sc(C(=O)NC3COC3)nc2CC2CCCCC2)c(Cl)c1Cl", "RORγ (Homo sapiens)", "7.2/8.5/8.5"),
]

Recorded pIC50 (FF) for CC(C)(C)NS(=O)(=O)c1ccc(-c2sc(S(N)(=O)=O)nc2CC2CCCCC2)c2ccccc12 with RORγ (Homo sapiens), please?
6.6/7.5/7.7

Recorded pIC50 (FF) for CC(C)(C)c1cc(-c2oc(C(N)=O)nc2CC2CCCCC2)cc(C(C)(C)C)c1 with RORγ (Homo sapiens), please?
6.6/5.8/5.8

Recorded pIC50 (FF) for CC(C)(C)NS(=O)(=O)c1ccc(-c2oc(C(=O)N[C@H]3C[C@H](C(=O)O)C3)nc2CC2CCCCC2)cc1C(C)(C)C with RORγ (Homo sapiens), please?
5.5/6.4/6.3

* * *

Biological target: UniProtKB P51449
Experiment: RORγ Gal4 Reporter Gene Assay
Type: cell-based
outcome.measure: pIC50 (FF)

Use the examples below as a reference point.
# molecule, pIC50 (FF)
data = [
    ("CC(C)(C)c1cc(-c2oc(C(=O)NC3CCOCC3)nc2CC2CCCCC2)cc(C2(C)CC2)c1", "6.9/6.9/6.9"),
    ("CC(C)(C)NS(=O)(=O)c1ccc(-c2sc(C(=O)NC3CCS(=O)(=O)CC3)nc2CC2CCCCC2)c(Cl)c1Cl", "7.0/8.7/8.7"),
    ("COC(c1nc(C(=O)N[C@H]2C[C@H](C(=O)O)C2)sc1-c1cc(C(C)(C)C)cc(C2(C)CC2)c1)C1CCCCC1 (stereo partly drawn)", "6.1/7.0/7.0"),
]

Requested field: pIC50 (FF). Item: COC(c1nc(C(=O)NC2CCOCC2)sc1-c1cc(C(C)(C)C)cc(C2(C)CC2)c1)C1CCCCC1 (stereo not drawn)
6.8/7.1/7.1

Requested field: pIC50 (FF). Item: CC(C)(C)NS(=O)(=O)c1ccc(-c2sc(C(=O)NC3CSC3)nc2CC2CCCCC2)c(Cl)c1Cl
7.2/8.7/8.7

Requested field: pIC50 (FF). Item: CC(C)(C)c1cc(-c2ccc(C(N)=O)cc2CC2CCCCC2)cc(C(C)(C)C)c1
6.4/6.2/6.2

Requested field: pIC50 (FF). Item: CC(C)(C)NS(=O)(=O)c1ccc(-c2oc(C(=O)N3CC4(CCOCC4)C3)nc2CC2CCCCC2)c2ccccc12
6.4/7.2/7.4

Requested field: pIC50 (FF). Item: CC(C)(C)NS(=O)(=O)c1ccc(-c2sc(C(=O)N[C@H]3C[C@H](C(=O)O)C3)nc2CC2CCCCC2)c(Cl)c1C(F)(F)F
6.2/8.0/8.2

Requested field: pIC50 (FF). Item: CC(C)(C)NS(=O)(=O)c1ccc(-c2oc(C(=O)N3CC4(CCS(=O)(=O)CC4)C3)nc2CC2CCCCC2)c2ccccc12
6.3/8.5/8.5

Requested field: pIC50 (FF). Item: CC(C)(C)c1cc(-c2cc(C(N)=O)ccc2CC2CCCCC2)cc(C(C)(C)C)c1
6.5/6.3/6.3

Requested field: pIC50 (FF). Item: CC(C)(C)NS(=O)(=O)c1ccc(-c2sc(C(=O)NCCC(C)(C)C(=O)O)nc2CC2CCCCC2)cc1C(F)(F)F
6.5/7.4/7.4

* * *

pIC50 (REN) for assorted compounds
Molecular target: UniProt P51449
Assay: RORγ Gal4 Reporter Gene Assay
Assay type: cell-based

Recorded pIC50 (REN) for CC(C)(C)NS(=O)(=O)c1ccc(-c2sc(C(=O)NC3C[S+]([O-])C3)nc2CC2CCCCC2)cc1C(C)(C)O (centres unmarked) [15/2] with UniProt P51449, please?
6.6/7.3/7.3

Recorded pIC50 (REN) for CC(C)(C)NS(=O)(=O)c1ccc(-c2oc(C(=O)NC3CCC(C)(C(=O)O)CC3)nc2CC2CCCCC2)c2ccccc12 (centres unmarked) with UniProt P51449, please?
5.9/6.8/7.0

Recorded pIC50 (REN) for CC(C)(C)NS(=O)(=O)c1ccc(-c2sc(C(=O)NC3CCS(=O)(=O)CC3)nc2CC2CCCCC2)c2ccncc12 with UniProt P51449, please?
6.3/7.9/7.9

Recorded pIC50 (REN) for CCCc1nc(C(=O)NC2CCS(=O)(=O)CC2)sc1-c1ccc(S(=O)(=O)NC(C)(C)C)c(Cl)c1Cl with UniProt P51449, please?
7.0/7.4/7.5

* * *

Target: RORγ (Homo sapiens)
Assay: RORγ Gal4 Reporter Gene Assay
Assay type: cell-based
outcome.measure: pIC50 (REN)

Requested field: pIC50 (REN). Item: CC(C)(O)CNC(=O)c1nc(CC2CCC2)c(-c2ccc(S(=O)(=O)NC(C)(C)C)c3ccccc23)s1
6.8/8.4/8.5

* * *

Target: RORγ (Homo sapiens, UniProt P51449)
Sequence (P51449 whole entry, looked up, the tested form may be a part): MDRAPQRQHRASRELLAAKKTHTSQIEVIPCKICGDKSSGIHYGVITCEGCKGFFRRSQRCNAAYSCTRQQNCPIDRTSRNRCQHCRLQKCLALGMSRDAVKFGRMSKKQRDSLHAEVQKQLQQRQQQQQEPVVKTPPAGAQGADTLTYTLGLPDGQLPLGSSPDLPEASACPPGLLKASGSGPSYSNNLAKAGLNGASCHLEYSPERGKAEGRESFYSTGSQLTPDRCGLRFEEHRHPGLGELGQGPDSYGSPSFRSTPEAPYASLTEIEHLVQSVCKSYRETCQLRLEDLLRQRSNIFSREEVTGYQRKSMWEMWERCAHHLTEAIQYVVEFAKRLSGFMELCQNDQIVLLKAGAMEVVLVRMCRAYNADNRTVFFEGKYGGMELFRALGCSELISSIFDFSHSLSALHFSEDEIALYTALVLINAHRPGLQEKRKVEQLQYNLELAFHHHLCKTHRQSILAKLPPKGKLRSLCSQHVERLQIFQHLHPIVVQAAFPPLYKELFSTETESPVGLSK
Experiment: RORγ Gal4 Reporter Gene Assay
Type: cell-based
outcome.measure: pIC50 (REN)

# test.smiles, pIC50 (REN)
data = [
    ("CC(C)(C)NS(=O)(=O)c1ccc(-c2sc(C(=O)NC3CCS(=O)(=O)CC3)nc2C2CCCCC2)c2ccccc12", "6.9/8.2/8.2"),
    ("CC(C)(C)NS(=O)(=O)c1ccc(-c2oc(C(=O)N[C@H]3C[C@H](C(=O)NS(C)(=O)=O)C3)nc2CC2CCCCC2)c2ccccc12", "6.1/6.7/6.7"),
    ("CC(C)(CCNC(=O)c1nc(CC2CCCCC2)c(-c2cc(C(C)(C)C)cc(C3(C)CC3)c2)s1)C(=O)O", "6.3/7.0/7.0"),
    ("CC(C)(C)c1cc(-c2sc(C(=O)N[C@H]3C[C@H](C(=O)O)C3)nc2CC2CCCCC2)cc(C(F)F)c1", "6.3/7.0/7.1"),
    ("CC(C)(C)NC(=O)c1cc(-c2sc(C(=O)N[C@H]3C[C@H](C(=O)O)C3)nc2CC2CCCCC2)cc(C(C)(C)C)c1", "6.2/7.4/7.5"),
]

Would you kindly look at the next entry?
Requested field: pIC50 (REN). Item: CC(C)(C)NS(=O)(=O)c1ccc(-c2oc(C(=O)NC34CCC(C(=O)O)(CC3)C4)nc2CC2CCCCC2)c2ccccc12
6.1/8.3/8.4

* * *

Target: UniProt:P51449
Assay: RORγ Gal4 Reporter Gene Assay
Format: cell-based
Conditions: firefly (FF) luciferase, 293T cells; read-out: pIC50 (FF) (converted)
# class assignment by measured IC50: A: < 0.01 µM; B: ≥ 0.01 µM and < 0.1 µM; C: ≥ 0.1 µM

Reference set, count: 3
# test.smiles, qualitative.label
measured = [
    ("C[C@H](NS(=O)(=O)c1ccc(-c2sc(C(=O)NC3CCS(=O)(=O)CC3)nc2CC2CCCC2)c2ccccc12)C(F)(F)F", "A"),
    ("CC(C)(C)c1cc(-c2sc(C(=O)N[C@H]3C[C@H](C(=O)O)C3)nc2CC2CCCCC2)cc(C(C)(C)C)n1", "B"),
    ("O=C(N[C@H]1C[C@H](C(=O)O)C1)c1nc(CC2CCCCC2)c(-c2ccc(OC(F)(F)F)c3ccccc23)s1", "C"),
]

Moving on to the next compound.
// return the class label for CC(C)(C)NS(=O)(=O)c1ccc(-c2sc(C(=O)N[C@H]3C[C@H](C(=O)O)C3)nc2Cc2ccccc2)c2ccccc12
B

* * *

pIC50 (REN) for assorted compounds
Target: RORγ (Homo sapiens, UniProt P51449)
Experiment: RORγ Gal4 Reporter Gene Assay
Type: cell-based

Use the examples below as a reference point.
# test.smiles, pIC50 (REN)
measured = [
    ("CC(C)(C)NS(=O)(=O)c1ccc(-c2sc(C(=O)N[C@H]3C[C@H](C(=O)O)C3)nc2CC2CCCCC2)c(Cl)c1C(F)(F)F", "6.2/8.0/8.2"),
    ("CC(C)(C)c1cc(-c2nc(C(N)=O)ncc2CC2CCCCC2)cc(C(C)(C)C)c1", "5.9/6.3/6.2"),
]

Requested field: pIC50 (REN). Item: CC(C)(C)NS(=O)(=O)c1ccc(-c2sc(C(=O)NC3CCS(=O)(=O)CC3)nc2CC2CC2)c(Cl)c1Cl
7.0/7.5/7.5
